- Measured Target: Trypsin
- Run Description: selectivity inhibition assay
No end group written: not given here. *: point of attachment. kbt‑6‑CONH‑4‑piperidine = ketobenzothiazole-6-CONH-4-piperidine (Kbt-4-piperidinylamide), O=C(NC1CCNCC1)c1ccc2nc(*)sc2c1; kbt‑6‑CONH‑Bn = ketobenzothiazole-6-CONH-benzyl (Kbt-benzylamide), O=C(NCc1ccccc1)c1ccc2nc(*)sc2c1; kbt = C-terminal ketobenzothiazole, c1ccc2sc(*)nc2c1; Kbt = ketobenzothiazole, c1ccc2sc(*)nc2c1; Fmoc = O=C(OCC1c2ccccc2-c2ccccc21)*
Overview of reported pKi across a group of binders:
// pKi here means minus log10 of the molar concentration (mol/L)

| Binder | pKi |
| --- | --- |
| Ac-KQLR-Kbt (SMILES CC(=O)N[C@@H](CCCCN)C(=O)N[C@@H](CCC(N)=O)C(=O)N[C@@H](CC(C)C)C(=O)N[C@@H](CCCNC(=N)N)C(=O)c1nc2ccccc2s1) [Ac-KQLR(SEQ ID NO: 1)-Kbt] | 9.62 |
| H-WRLR-kbt (SMILES CC(C)C[C@H](NC(=O)[C@H](CCCNC(=N)N)NC(=O)[C@@H](N)Cc1c[nH]c2ccccc12)C(=O)N[C@@H](CCCNC(=N)N)C(=O)c1nc2ccccc2s1) [H-WRLR(SEQ ID NO: 9)-Kbt] | 9.02 |
| Ac-SKLR (not fully specified (C-terminus)) [Ac-SKLR(SEQ ID NO: 10)-Kbt-Trp-NH2] | 10.70 |

Name the recorded pKi of the item Ac-SKLR-{kbt‑6‑CONH‑Bn} [Ac-SKLR(SEQ ID NO: 10)-Kbt-benzylamide] in your answer.
10.30

Name the recorded pKi of the item Ac-SKLR-{kbt‑6‑CO-Val-NH2} [Ac-SKLR(SEQ ID NO: 10)-Kbt-Val-NH2] in your answer.
9.47

Name the recorded pKi of the item H-Trp-Leu-Arg-{kbt-Val-NH2} [H-WLR-kbt-Val-NH2] in your answer.
11.00

Name the recorded pKi of the item H-Trp-Leu-Arg-kbt [H-WLR-kbt] in your answer.
10.30

Name the recorded pKi of the item Ac-FLFR-Kbt (SMILES CC(=O)N[C@@H](Cc1ccccc1)C(=O)N[C@@H](CC(C)C)C(=O)N[C@@H](Cc1ccccc1)C(=O)N[C@@H](CCCNC(=N)N)C(=O)c1nc2ccccc2s1) [Ac-FLFR(SEQ ID NO: 19)-Kbt] in your answer.
9.57

Name the recorded pKi of the item Ac-SKLR-{kbt‑6‑CONH‑4‑piperidine} [Ac-SKLR(SEQ ID NO: 10)-Kbt-4-piperidinylamide] in your answer.
9.39

Name the recorded pKi of the item H-Arg-Leu-Arg-kbt [H-RLR-kbt] in your answer.
9.89

Name the recorded pKi of the item Fmoc-Leu-Arg-kbt [Fmoc-LR-kbt] in your answer.
7.70
